- Test system: A498 complex spheroid viability
- Protocol Notes: Anticancer human tumor A498 cell line growth inhibition;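 also: spheroids exposed to agents for seven days before readout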;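 as to viability, T/C: 100% = DMSO vehicle-treated spheroids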
- Condition Description: second compound 3.16 µM; first compound 0.316 µM; stronger effect = lower value
Below is a list of entries, each paired with its recorded viability, T/C value.

Query: Report measured viability, T/C; entry is CC1(C)CCC(CN2CCN(c3ccc(C(=O)NS(=O)(=O)c4ccc(NCC5CCOCC5)c([N+](=O)[O-])c4)c(Oc4cnc5[nH]ccc5c4)c3)CC2)=C(c2ccc(Cl)cc2)C1 + NC1CC1c1ccc(-c2cccc(O)c2)cc1
Reply: 98.9%

Query: Report measured viability, T/C; entry is O=C(c1cc(Cc2n[nH]c(=O)c3ccccc23)ccc1F)N1CCN(C(=O)C2CC2)CC1 + NC1CC1c1ccc(-c2cccc(O)c2)cc1
Reply: 104%

Query: Report measured viability, T/C; entry is COc1ccc([C@@H](O)c2cc(-c3ncnc4cc(N5CCOCC5)ccc34)c(F)cc2Cl)nn1 + NC1CC1c1ccc(-c2cccc(O)c2)cc1
Reply: 29.7%

Query: Report measured viability, T/C; entry is CC1COCCN1c1cc(-c2ccnn2C)c2ccnc(-c3ccn[nH]3)c2n1 (stereo unspecified) + NC1CCC(NC2CC2c2ccccc2)CC1
Reply: 14.8%

Query: Report measured viability, T/C; entry is CC(C)c1c(-c2ccccc2)nc2c(C#N)c[nH]n2c1=O + NC1CCC(NC2CC2c2ccccc2)CC1
Reply: 82.3%

Query: Report measured viability, T/C; entry is O=C(C=Cn1cnc(-c2cc(C(F)(F)F)cc(C(F)(F)F)c2)n1)NNc1cnccn1 + NC1CC1c1ccc(-c2cccc(O)c2)cc1
Reply: 27%

----------
- Tested on: A498 complex spheroid viability
- Protocol Notes: Anticancer human tumor A498 cell line growth inhibition;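 also: spheroids exposed to agents for seven days before readout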;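 as to viability, T/C: 100% = DMSO vehicle-treated spheroids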
- Condition Description: second compound 10 µM; first compound 0.3 µM; stronger effect = lower value
Each record is given true (1) if its reported viability, T/C is strictly below 5%. Records at or above 5% are given false (0).

Below, 5 molecules whose answers are already recorded.
| Molecule | Classification |
| --- | --- |
| COc1cc(C2c3cc4c(cc3C(OC3OC5COC(C)OC5C(O)C3O)C3COC(=O)C23)OCO4)cc(OC)c1O (configuration not stated) + NC1CCC(NC2CC2c2ccccc2)CC1 | false (0) |
| Nc1ccn(C2OC(CO)C(O)C2(F)F)c(=O)n1 (configuration not stated) + NC1CCC(NC2CC2c2ccccc2)CC1 | false (0) |
| O=C(C=Cc1cccc(S(=O)(=O)Nc2ccccc2)c1)NO + NC1CC1c1ccc(-c2cccc(O)c2)cc1 | false (0) |
| CCc1c2c(nc3ccc(O)cc13)-c1cc3c(c(=O)n1C2)COC(=O)[C@]3(O)CC + NC1CC1c1ccc(-c2cccc(O)c2)cc1 | true (1) |
| CCc1c2c(nc3ccc(O)cc13)-c1cc3c(c(=O)n1C2)COC(=O)[C@]3(O)CC + NC1CCC(NC2CC2c2ccccc2)CC1 | true (1) |

Query: Please indicate whether the reported viability, T/C of Nc1ncn(C2CC(O)C(CO)S2)c(=O)n1 (configuration not stated) + NC1CC1c1ccc(-c2cccc(O)c2)cc1 is strictly below 5%.
Reply: false (0)

----------
- Tested on: A498 complex spheroid viability
- Protocol Notes: Anticancer human tumor A498 cell line growth inhibition;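 also: spheroids exposed to agents for seven days before readout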;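 as to viability, T/C: 100% = DMSO vehicle-treated spheroids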
- Condition Description: second compound 0.316 µM; first compound 0.0949 µM; stronger effect = lower value
Each record is given y if its reported viability, T/C is strictly below 40%. Records at or above 40% are given n.

| Compound | System Tested | Classification |
| --- | --- | --- |
| CCc1c2c(nc3ccc(O)cc13)-c1cc3c(c(=O)n1C2)COC(=O)[C@]3(O)CC + NC1CC1c1ccc(-c2cccc(O)c2)cc1 | A498 complex spheroid viability | y |
| Nc1ccn(C2OC(CO)C(O)C2(F)F)c(=O)n1 (stereo unspecified) + NC1CCC(NC2CC2c2ccccc2)CC1 | A498 complex spheroid viability | y |

Now turn to the next compound.
Query: Please indicate whether the reported viability, T/C of CCN(c1cc(-c2ccc(CN3CCOCC3)cc2)cc(C(=O)NCc2c(C)cc(C)[nH]c2=O)c1C)C1CCOCC1 + NC1CCC(NC2CC2c2ccccc2)CC1 is strictly below 40%.
Reply: n

----------
- Tested on: A498 complex spheroid viability
- Protocol Notes: Anticancer human tumor A498 cell line growth inhibition;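 also: spheroids exposed to agents for seven days before readout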;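 as to viability, T/C: 100% = DMSO vehicle-treated spheroids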
- Condition Description: second compound 10 µM; first compound 10 µM; stronger effect = lower value
Recorded Endpoint: viability, T/C (%)
Give just the number in %; leave the unit off.

Below, each entry is followed by its recorded viability, T/C result.
| Compound | System Tested | Result |
| --- | --- | --- |
| O=C(c1cc(Cc2n[nH]c(=O)c3ccccc23)ccc1F)N1CCN(C(=O)C2CC2)CC1 + NC1CC1c1ccc(-c2cccc(O)c2)cc1 | A498 complex spheroid viability | 88.4 |
| COc1ccc([C@@H](O)c2cc(-c3ncnc4cc(N5CCOCC5)ccc34)c(F)cc2Cl)nn1 + NC1CC1c1ccc(-c2cccc(O)c2)cc1 | A498 complex spheroid viability | 5.51 |
| CC1(C)CCC(CN2CCN(c3ccc(C(=O)NS(=O)(=O)c4ccc(NCC5CCOCC5)c([N+](=O)[O-])c4)c(Oc4cnc5[nH]ccc5c4)c3)CC2)=C(c2ccc(Cl)cc2)C1 + NC1CCC(NC2CC2c2ccccc2)CC1 | A498 complex spheroid viability | 2.98 |
| COc1ccc([C@@H](O)c2cc(-c3ncnc4cc(N5CCOCC5)ccc34)c(F)cc2Cl)nn1 + NC1CCC(NC2CC2c2ccccc2)CC1 | A498 complex spheroid viability | 5.83 |
| CC(C)c1c(-c2ccccc2)nc2c(C#N)c[nH]n2c1=O + NC1CC1c1ccc(-c2cccc(O)c2)cc1 | A498 complex spheroid viability | 94.9 |
| CC1COCCN1c1cc(C2(S(C)(=N)=O)CC2)nc(-c2ccnc3[nH]ccc23)n1 (stereo not given) + NC1CC1c1ccc(-c2cccc(O)c2)cc1 | A498 complex spheroid viability | 10.1 |
| CC1COCCN1c1cc(C2(S(C)(=N)=O)CC2)nc(-c2ccnc3[nH]ccc23)n1 (stereo not given) + NC1CCC(NC2CC2c2ccccc2)CC1 | A498 complex spheroid viability | 12.8 |
| CC1(C)CCC(CN2CCN(c3ccc(C(=O)NS(=O)(=O)c4ccc(NCC5CCOCC5)c([N+](=O)[O-])c4)c(Oc4cnc5[nH]ccc5c4)c3)CC2)=C(c2ccc(Cl)cc2)C1 + NC1CC1c1ccc(-c2cccc(O)c2)cc1 | A498 complex spheroid viability | 7.06 |
| CC(C)c1c(-c2ccccc2)nc2c(C#N)c[nH]n2c1=O + NC1CCC(NC2CC2c2ccccc2)CC1 | A498 complex spheroid viability | 69.5 |

Query: Report measured viability, T/C; entry is O=C(c1cc(Cc2n[nH]c(=O)c3ccccc23)ccc1F)N1CCN(C(=O)C2CC2)CC1 + NC1CCC(NC2CC2c2ccccc2)CC1
Reply: 66.8

----------
Below is a list of entries, each paired with its recorded viability, T/C value.
- System: A498 complex spheroid viability
- Protocol Notes: Anticancer human tumor A498 cell line growth inhibition;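 also: spheroids exposed to agents for seven days before readout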;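 as to viability, T/C: 100% = DMSO vehicle-treated spheroids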
- Condition Description: second compound 0.316 µM; first compound 0.00316 µM; stronger effect = lower value
Give just the number in %; leave the unit off.

| Molecule | Result |
| --- | --- |
| CC1COCCN1c1cc(-c2ccnn2C)c2ccnc(-c3ccn[nH]3)c2n1 (configuration not stated) + NC1CCC(NC2CC2c2ccccc2)CC1 | 89.7 |
| CC(C)CC(NC(=O)CNC(=O)c1cc(Cl)ccc1Cl)B1OC(=O)CC(CC(=O)O)(C(=O)O)O1 (configuration not stated) + NC1CCC(NC2CC2c2ccccc2)CC1 | 72 |
| CC1COCCN1c1cc(-c2ccnn2C)c2ccnc(-c3ccn[nH]3)c2n1 (configuration not stated) + NC1CC1c1ccc(-c2cccc(O)c2)cc1 | 108 |
| Nc1ncn(C2CC(O)C(CO)O2)c(=O)n1 (configuration not stated) + NC1CC1c1ccc(-c2cccc(O)c2)cc1 | 118 |

Query: Report measured viability, T/C; entry is Nc1ncn(C2CC(O)C(CO)O2)c(=O)n1 (configuration not stated) + NC1CCC(NC2CC2c2ccccc2)CC1
Reply: 93.1

Query: Report measured viability, T/C; entry is CC[C@@]1(O)C(=O)OCc2c1cc1n(c2=O)Cc2cc3c(CN(C)C)c(O)ccc3nc2-1 + NC1CCC(NC2CC2c2ccccc2)CC1
Reply: 81.8

Query: Report measured viability, T/C; entry is O=C(C=Cn1cnc(-c2cc(C(F)(F)F)cc(C(F)(F)F)c2)n1)NNc1cnccn1 + NC1CCC(NC2CC2c2ccccc2)CC1
Reply: 66.7

----------
Below is a list of entries, each paired with its recorded IC50 value.
- System: A498 complex spheroid viability
- Protocol Notes: Anticancer human tumor A498 cell line growth inhibition;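 also: spheroids exposed to agents for seven days before readout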
- Condition Description: curve of first compound; second compound 1 µM
Give just the number in nM; leave the unit off.

Below, each entry is followed by its recorded IC50 result.
| Compound | Recorded Endpoint | Result |
| --- | --- | --- |
| CC(C)CC(NC(=O)C(Cc1ccccc1)NC(=O)c1cnccn1)B(O)O (stereo not given) + NC1CCC(NC2CC2c2ccccc2)CC1 | IC50 | 0.765 |
| CC(C)CC(NC(=O)CNC(=O)c1cc(Cl)ccc1Cl)B1OC(=O)CC(CC(=O)O)(C(=O)O)O1 (stereo not given) + NC1CCC(NC2CC2c2ccccc2)CC1 | IC50 | 4.56 |
| CC1COCCN1c1cc(-c2ccnn2C)c2ccnc(-c3ccn[nH]3)c2n1 (stereo not given) + NC1CCC(NC2CC2c2ccccc2)CC1 | IC50 | 24.5 |

Query: Report measured IC50; entry is CC[C@@]1(O)C(=O)OCc2c1cc1n(c2=O)Cc2cc3c(CN(C)C)c(O)ccc3nc2-1 + NC1CCC(NC2CC2c2ccccc2)CC1
Reply: 38.4

Query: Report measured IC50; entry is Nc1ncn(C2CC(O)C(CO)O2)c(=O)n1 (stereo not given) + NC1CCC(NC2CC2c2ccccc2)CC1
Reply: 218

Query: Report measured IC50; entry is Nc1ncn(C2CC(O)C(CO)S2)c(=O)n1 (stereo not given) + NC1CC1c1ccc(-c2cccc(O)c2)cc1
Reply: 257

Query: Report measured IC50; entry is CC1(C)CCC(CN2CCN(c3ccc(C(=O)NS(=O)(=O)c4ccc(NCC5CCOCC5)c([N+](=O)[O-])c4)c(Oc4cnc5[nH]ccc5c4)c3)CC2)=C(c2ccc(Cl)cc2)C1 + NC1CCC(NC2CC2c2ccccc2)CC1
Reply: 3470

Query: Report measured IC50; entry is CC1COCCN1c1cc(C2(S(C)(=N)=O)CC2)nc(-c2ccnc3[nH]ccc23)n1 (stereo not given) + NC1CC1c1ccc(-c2cccc(O)c2)cc1
Reply: 552

Query: Report measured IC50; entry is O=C(C=Cc1cccc(S(=O)(=O)Nc2ccccc2)c1)NO + NC1CC1c1ccc(-c2cccc(O)c2)cc1
Reply: 325
